Target: 3-oxoacyl-[acyl-carrier-protein] synthase 3 (Mycobacterium tuberculosis (strain ATCC 25618 / H37Rv))
Sequence (P9WNG3 whole entry): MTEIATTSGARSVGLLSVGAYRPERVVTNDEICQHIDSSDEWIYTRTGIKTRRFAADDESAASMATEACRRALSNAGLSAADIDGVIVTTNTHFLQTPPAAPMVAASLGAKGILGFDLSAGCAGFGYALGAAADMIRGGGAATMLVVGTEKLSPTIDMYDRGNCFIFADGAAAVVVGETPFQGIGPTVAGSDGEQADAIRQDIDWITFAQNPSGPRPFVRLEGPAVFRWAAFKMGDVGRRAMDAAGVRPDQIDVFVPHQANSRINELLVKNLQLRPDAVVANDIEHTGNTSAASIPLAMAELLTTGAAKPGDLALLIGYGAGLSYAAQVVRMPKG
Assay: ChEBML_37595
quantity: pIC50
Note on units: pIC50 is unitless, being -log10 of a concentration expressed in mol/L.

- molecule: "Cc1ccc(-c2ccc(CC3(C)SC(=O)C(C)C3=O)cc2)cc1 (configuration not stated)"
  quantity: "pIC50"
  val: 4.28

Would you mind telling me what pIC50 value was observed for CC1C(=O)SC(C)(Cc2cccc(Oc3ccccc3)c2)C1=O (configuration not stated) ? 4.28
